Measured Particle size d10 of individual entries
experiment: Particle size by laser diffraction (Mastersizer 2000, Scirocco 2000 dry dispersion); format: physicochemical; settings: processed CIPRO particles, Table 3; Hydrochloride Monohydrate

compound	Particle size d10
Cl.O.O=C(O)c1cn(C2CC2)c2cc(N3CCNCC3)c(F)cc2c1=O [CIPRO (US & Krups Grinder), Ciprofloxacin Hydrochloride Monohydrate]	1.93 μm
Cl.O.O=C(O)c1cn(C2CC2)c2cc(N3CCNCC3)c(F)cc2c1=O [CIPRO (w/o US, Grinder designed at MIT), Ciprofloxacin Hydrochloride Monohydrate]	2.82 μm
Cl.O.O=C(O)c1cn(C2CC2)c2cc(N3CCNCC3)c(F)cc2c1=O [CIPRO (w/o US, Krups Grinder), Ciprofloxacin Hydrochloride Monohydrate]	1.23 μm
Cl.O.O=C(O)c1cn(C2CC2)c2cc(N3CCNCC3)c(F)cc2c1=O [CIPRO (US & Morter-Pastle), Ciprofloxacin Hydrochloride Monohydrate]	3.01 μm

Source listed as patent US11911719B2.
